Data origin: patent US20230365592A1

Target: human PAH with the R408W mutation (Homo sapiens, UniProt P00439, R408W)
Construct: expressed in transfected cells
Sequence (P00439 1-452 R408W): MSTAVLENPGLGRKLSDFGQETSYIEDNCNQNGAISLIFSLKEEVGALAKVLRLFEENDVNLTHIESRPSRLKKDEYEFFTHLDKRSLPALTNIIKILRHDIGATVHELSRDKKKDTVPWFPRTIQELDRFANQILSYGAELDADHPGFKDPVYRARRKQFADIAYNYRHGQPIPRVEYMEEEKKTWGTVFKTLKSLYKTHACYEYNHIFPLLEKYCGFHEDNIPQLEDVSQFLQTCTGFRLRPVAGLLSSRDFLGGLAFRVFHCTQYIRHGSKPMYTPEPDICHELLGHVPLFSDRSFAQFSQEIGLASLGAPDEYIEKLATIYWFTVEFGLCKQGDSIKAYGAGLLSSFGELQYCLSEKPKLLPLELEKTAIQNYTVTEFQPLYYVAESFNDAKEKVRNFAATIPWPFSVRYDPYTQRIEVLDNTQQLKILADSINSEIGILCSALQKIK
Experiment: Cell Based Phenylalanine Flux Assay;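 note: after compound treatment, cells received sepiapterin plus isotope-labelled Phenylalanine for 4 hours, then labelled Tyrosine in the medium was quantified, 10-point 2-fold dilution series run in duplicate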
Details: A375 cells expressing human R408W PAH; 24 hrs compound incubation; 13C-Tyrosine by LC-MS; average where tested multiple times; read-out: AC50
# AC50 per record follows

Would you please look over these solved cases?
Assay human PAH with the R408W mutation (Homo sapiens, UniProt P00439, R408W), sample Cn1nc(C(F)F)nc1C(=O)N1CCc2[nH]cnc2[C@H]1c1cc2c(Cl)cccn2n1 , AC50 read: < 500 nM

Assay human PAH with the R408W mutation (Homo sapiens, UniProt P00439, R408W), sample Cn1ncnc1C(=O)N1CCc2[nH]cnc2[C@@H]1c1cc2c(Cl)cccn2n1 , AC50 read: > 5000 nM

Assay human PAH with the R408W mutation (Homo sapiens, UniProt P00439, R408W), sample COc1ccc(-c2nnc(C(=O)N3CCc4[nH]cnc4[C@H]3c3cc4c(C)cccn4n3)o2)nc1 , AC50 read: < 500 nM

Assay human PAH with the R408W mutation (Homo sapiens, UniProt P00439, R408W), sample O=C(c1oc(-c2ccccn2)nc1C(F)F)N1CCc2[nH]cnc2[C@@H]1c1cc2c(F)cccn2n1 , AC50 read: 500 to 1000 nM

Assay human PAH with the R408W mutation (Homo sapiens, UniProt P00439, R408W), sample O=C(CC1CC1)N1CCc2[nH]cnc2[C@@H]1c1cc2ccccn2n1 , AC50 read: 1000 to 5000 nM

Next:
Assay human PAH with the R408W mutation (Homo sapiens, UniProt P00439, R408W), sample Cn1cc(-c2nnc(C(=O)N3CCc4[nH]cnc4[C@@H]3c3cc4cccc(F)n4n3)o2)cn1 , AC50 read: 1000 to 5000 nM

Assay human PAH with the R408W mutation (Homo sapiens, UniProt P00439, R408W), sample Cn1nc(C(F)F)nc1C(=O)N1CCc2[nH]cnc2[C@H]1c1cc2ccc(C(F)(F)F)cn2n1 , AC50 read: < 500 nM

Assay human PAH with the R408W mutation (Homo sapiens, UniProt P00439, R408W), sample O=C(c1nnc(-c2ccc(F)cn2)o1)N1CCc2[nH]cnc2[C@H]1c1cc2c(F)cccn2n1 , AC50 read: < 500 nM

Assay human PAH with the R408W mutation (Homo sapiens, UniProt P00439, R408W), sample O=C(c1nnc(C2CC2)o1)N1CCc2[nH]cnc2[C@@H]1c1cc2c(F)cccn2n1 , AC50 read: > 5000 nM

Assay human PAH with the R408W mutation (Homo sapiens, UniProt P00439, R408W), sample Cc1cccn2nc([C@@H]3c4nc[nH]c4CCN3C(=O)c3nnc(-c4ncccc4F)o3)cc12 , AC50 read: < 500 nM

Assay human PAH with the R408W mutation (Homo sapiens, UniProt P00439, R408W), sample Cn1ccc(-c2nnc(C(=O)N3CCc4[nH]cnc4[C@H]3c3cc4cccc(Cl)n4n3)o2)n1 , AC50 read: < 500 nM

Assay human PAH with the R408W mutation (Homo sapiens, UniProt P00439, R408W), sample O=C(c1ccnn1C(F)F)N1CCc2[nH]cnc2[C@H]1c1cc2cccc(Cl)n2n1 , AC50 read: 500 to 1000 nM

Assay human PAH with the R408W mutation (Homo sapiens, UniProt P00439, R408W), sample Cn1cc(-c2nnc(C(=O)N3CCc4[nH]cnc4[C@H]3c3cc4cccc(C(F)(F)F)n4n3)o2)cn1 , AC50 read: 500 to 1000 nM

Assay human PAH with the R408W mutation (Homo sapiens, UniProt P00439, R408W), sample O=C(c1nnc(-c2cnccn2)o1)N1CCc2[nH]cnc2[C@H]1c1cc2c(OC(F)(F)F)cccn2n1 , AC50 read: 500 to 1000 nM

Assay human PAH with the R408W mutation (Homo sapiens, UniProt P00439, R408W), sample FC(F)(F)c1cccn2nc([C@@H]3c4nc[nH]c4CCN3c3ncccn3)cc12 , AC50 read: < 500 nM

Assay human PAH with the R408W mutation (Homo sapiens, UniProt P00439, R408W), sample O=C(c1cnn2cc(C3CC3)ccc12)N1CCc2[nH]cnc2[C@H]1c1cc2c(F)cccn2n1 , AC50 read: < 500 nM
